Biological target: RBM39 and the DCAF15 complex (RBM39-Flag / His-DCAF15-DDA1-DDB1) (Homo sapiens (Human), UniProt Q14498+Q66K64)
Assay: DCAF15 RBM39 complex formation TR-FRET assay
Details: RBM39(R150-D331) 3xFlag 50 nM, His-DCAF15-DDA1-DDB1 10 nM, 60 min room temperature
Protocol: A TR-FRET assay was used to assess the effect of compounds disclosed herein on the interaction between RBM39 and the DCAF15 complex. Test compounds were dissolved to form a 10 mM DMSO stock solution. […] A 30 nL aliquot of the diluted compound was transferred to a 384 well plate, which was incubated at room temperature for 15 minutes. […] The plates were incubated at room temperature for 60 minutes, and then read. […]
readout_label: EC50 (nM)

Here's what some known entries look like.
Cc1ccc(NS(=O)(=O)c2cnc(C3CC3)o2)c2[nH]cc(C#N)c12 : 105
CCCn1cnc(S(=O)(=O)Nc2ccc(C)c3c(C#N)c[nH]c23)c1 : 591
Cc1ccc(NS(=O)(=O)c2ncc(Cl)s2)c2[nH]cc(C#N)c12 : 429

I = N#Cc1c[nH]c2c(NS(=O)(=O)c3cncs3)cccc12
II = Cc1ccc(NS(=O)(=O)c2ncc(-c3ccncn3)s2)c2[nH]cc(C#N)c12
III = O=S(=O)(Nc1cccc2c(C(F)(F)F)c[nH]c12)c1cncs1
Order the items by recorded EC50; the first position goes to the largest value. List the labels, following the order given in the request.
I, II, III

P = Cc1ncc(S(=O)(=O)Nc2cccc3c(C#N)c[nH]c23)o1
Q = O=S(=O)(Nc1cccc2c(Cl)c[nH]c12)c1cnc(C(F)F)s1
R = Cc1ccc(NS(=O)(=O)c2ncc(C(=O)N3CCCC3)s2)c2[nH]cc(C#N)c12
Arrange these 3 compounds in increasing order of EC50. Sort the labels as requested; that list is your answer.
Q, R, P
(Q: 130 nM, R: 1130 nM, P: 1970 nM)

A = CCc1nc(S(=O)(=O)Nc2ccc(F)c3c(C#N)c[nH]c23)c[nH]1
B = Cc1ccc(NS(=O)(=O)c2ncc(-c3cncnc3)s2)c2[nH]cc(C#N)c12
Identify the item whose EC50 is the smaller number: A or B Select an item and report its label.
B
